system: P12-Ichikawa; assay: cell viability relative to DMSO control; higher = less cytotoxic; details: RPMI 5 mM glucose + 10% dialyzed FBS; 48 h; 0.569 µM
cell viability for assorted compounds
# output: bare number, implied unit %

The examples below pair each entry with its known result.
COc1cc2ncnc(Nc3cc(Br)c(O)c(Br)c3)c2cc1OC ... 114
CNc1nccc(-c2cccnc2Oc2cc(C(=O)Nc3cccc(C(F)(F)F)c3)ccc2C)n1 ... 112
CC[C@H](C)[N]1C=C(C)C2=C1C=C(C=C2C(=O)NC\C3=C(C)\C=C(\C)NC3=O)C4=CC=C(N=C4)N5CCNCC5 ... 116
CC(C)C[C@H](NC(=O)[C@H](CCc1ccccc1)NC(=O)CN1CCOCC1)C(=O)N[C@@H](Cc1ccccc1)C(=O)N[C@@H](CC(C)C)C(=O)[C@@]1(C)CO1 ... 4.93

Continue with the next compound.
Query :: Endpoint output: cell viability of C[C@]12CCC(=O)C=C1CC[C@@H]1[C@@H]2CC[C@@]2(C)[C@H]1CC[C@]2(C)O . Value?
Result :: 91.7
